meta.source: the supplement of paper PMC11865577

Test system: TO-N3-2 (biotin conjugate)
Test: pull-down binding Z-score (relative to library population); higher = stronger binding
Details: RNA library: Library-2
For each of the sequences below, state its pull-down binding Z-score.
Give bare numbers.

Solved cases below.
>>> recorded_measurement("CACAGUUCUGG [hsa-mir-761]")
0.18
>>> recorded_measurement("AGAGCGUGGGCUGGGGUUCAGGGACACCCUCU [hsa-mir-1229]")
1.86
>>> recorded_measurement("GGGACUGAGAAUUAGCUCAUCCU [IAV_invivo_PB2_1_Motif_14+IAV_invivo_PB2_1_Motif_14]")
0.208
>>> recorded_measurement("GGCUGGGCAGGCGGAAAGAGGUCUGAACUGCCUCUGCC [hsa-mir-6791]")
0.358

Kindly review the next sequence as well.
GET /value?item= CAGCACUGAGCAGGCAGUGUUGU [hsa-mir-4288] &field=pull-down binding Z-score returns 0.42
